biological target: human PDE4D7 (mutation of serine 54 to aspartic acid) (Homo sapiens, UniProt Q08499, S190D); experiment: Kinetic assay of PDE4 activity (cAMP hydrolysis, coupled-enzyme fluorescence); settings: inhibition of cAMP hydrolysis by human PDE4D; each concentration tested in duplicate; FIG. 1; read-out: One-half maximal inhibition of PDE4D (IC50)
Sequence (Q08499 1-748 isoform Q08499-11 S129D): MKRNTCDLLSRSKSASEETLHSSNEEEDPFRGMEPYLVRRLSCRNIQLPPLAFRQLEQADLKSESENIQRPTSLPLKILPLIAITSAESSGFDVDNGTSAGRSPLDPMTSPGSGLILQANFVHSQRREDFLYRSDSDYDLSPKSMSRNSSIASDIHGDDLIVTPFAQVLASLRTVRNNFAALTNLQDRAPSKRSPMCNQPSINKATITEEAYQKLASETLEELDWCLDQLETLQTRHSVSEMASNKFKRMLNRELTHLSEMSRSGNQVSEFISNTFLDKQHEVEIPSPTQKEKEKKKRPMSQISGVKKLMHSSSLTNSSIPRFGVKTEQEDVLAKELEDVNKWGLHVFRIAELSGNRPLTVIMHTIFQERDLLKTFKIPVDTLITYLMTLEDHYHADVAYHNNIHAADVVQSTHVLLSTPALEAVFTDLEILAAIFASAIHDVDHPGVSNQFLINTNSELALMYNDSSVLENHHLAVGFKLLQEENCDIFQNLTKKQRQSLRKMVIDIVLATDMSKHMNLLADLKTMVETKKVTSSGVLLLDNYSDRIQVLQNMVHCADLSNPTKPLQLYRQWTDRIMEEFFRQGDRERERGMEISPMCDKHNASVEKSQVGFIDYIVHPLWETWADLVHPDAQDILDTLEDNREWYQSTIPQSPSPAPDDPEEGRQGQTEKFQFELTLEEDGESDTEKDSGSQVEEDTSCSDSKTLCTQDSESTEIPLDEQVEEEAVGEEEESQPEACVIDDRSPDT
measured.quantity: pIC50
On this scale, pIC50 is minus log10 of a concentration expressed in M (mol/L).

Fill in the blank: the reported pIC50 of O=[N+]([O-])c1cccc(-c2cc(Cc3ccc(F)cc3)cc3c2OCC3)c1 [Example 1] is ____. 9.82
